biological target: Her2 receptor tyrosine kinase (Homo sapiens (Human))
Sequence (P04626 23-1255): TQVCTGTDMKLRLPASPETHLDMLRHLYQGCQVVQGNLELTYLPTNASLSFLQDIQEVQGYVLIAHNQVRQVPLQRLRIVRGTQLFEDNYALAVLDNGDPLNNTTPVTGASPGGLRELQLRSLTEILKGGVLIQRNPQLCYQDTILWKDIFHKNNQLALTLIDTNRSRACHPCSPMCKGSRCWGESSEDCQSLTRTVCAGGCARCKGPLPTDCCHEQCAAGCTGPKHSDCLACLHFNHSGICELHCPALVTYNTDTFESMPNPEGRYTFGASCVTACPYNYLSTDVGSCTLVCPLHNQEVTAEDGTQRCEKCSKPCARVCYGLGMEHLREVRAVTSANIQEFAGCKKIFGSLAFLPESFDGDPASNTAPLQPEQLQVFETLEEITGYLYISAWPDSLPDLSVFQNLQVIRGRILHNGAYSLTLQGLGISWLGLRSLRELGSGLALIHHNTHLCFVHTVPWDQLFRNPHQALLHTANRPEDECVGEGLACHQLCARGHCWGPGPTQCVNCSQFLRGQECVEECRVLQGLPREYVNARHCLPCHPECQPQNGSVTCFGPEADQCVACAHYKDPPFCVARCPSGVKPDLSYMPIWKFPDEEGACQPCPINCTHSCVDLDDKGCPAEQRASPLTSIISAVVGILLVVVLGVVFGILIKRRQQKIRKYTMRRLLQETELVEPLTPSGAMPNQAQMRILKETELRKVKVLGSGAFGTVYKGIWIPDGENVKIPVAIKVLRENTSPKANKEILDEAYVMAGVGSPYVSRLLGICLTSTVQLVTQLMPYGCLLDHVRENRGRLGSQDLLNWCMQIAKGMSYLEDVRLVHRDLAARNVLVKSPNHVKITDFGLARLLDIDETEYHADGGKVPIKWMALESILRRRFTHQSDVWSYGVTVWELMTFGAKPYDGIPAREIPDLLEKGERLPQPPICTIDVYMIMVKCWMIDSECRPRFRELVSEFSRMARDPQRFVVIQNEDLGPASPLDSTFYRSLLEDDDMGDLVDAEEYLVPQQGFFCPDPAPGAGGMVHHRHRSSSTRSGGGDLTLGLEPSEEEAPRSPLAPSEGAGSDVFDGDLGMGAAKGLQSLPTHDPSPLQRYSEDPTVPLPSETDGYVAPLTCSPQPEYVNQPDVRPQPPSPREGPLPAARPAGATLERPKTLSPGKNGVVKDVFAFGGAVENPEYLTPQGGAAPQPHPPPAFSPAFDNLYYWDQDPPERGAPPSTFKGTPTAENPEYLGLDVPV
Measured parameter: log10 IC50 (log10 of the value in nM)
Please keep in mind that the values are log10 of IC50 expressed in nM.

Worked examples, 4 compounds total:
O=S(=O)(CCNCc1ccc(-c2ccc3ncnc(Nc4ccc(OCc5cccc(F)c5)c(Cl)c4)c3c2)o1)CC(F)(F)F [Compound 5] ... 0.91
CS(=O)(=O)NCCNCc1ccc(-c2ccc3ncnc(Nc4ccc(OCc5cccc(F)c5)c(Cl)c4)c3c2)o1 [Compound 4] ... 0.85
NS(=O)(=O)CCNCc1ccc(-c2ccc3ncnc(Nc4ccc(OCc5cccc(F)c5)c(Cl)c4)c3c2)o1 [Compound 1] ... 0.19
O=S(=O)(CCNCc1ccc(-c2ccc3ncnc(Nc4ccc(OCc5cccc(F)c5)c(Cl)c4)c3c2)o1)C(F)(F)F [Compound 6] ... 1.41

For reference, reported log10 IC50 for CSCCNCc1ccc(-c2ccc3ncnc(Nc4ccc(OCc5cccc(F)c5)c(Cl)c4)c3c2)o1 [Compound 3] stands at 1.54

====

target: EGFR receptor tyrosine kinase (Homo sapiens (Human), UniProt P00533)
Sequence (P00533 25-1210): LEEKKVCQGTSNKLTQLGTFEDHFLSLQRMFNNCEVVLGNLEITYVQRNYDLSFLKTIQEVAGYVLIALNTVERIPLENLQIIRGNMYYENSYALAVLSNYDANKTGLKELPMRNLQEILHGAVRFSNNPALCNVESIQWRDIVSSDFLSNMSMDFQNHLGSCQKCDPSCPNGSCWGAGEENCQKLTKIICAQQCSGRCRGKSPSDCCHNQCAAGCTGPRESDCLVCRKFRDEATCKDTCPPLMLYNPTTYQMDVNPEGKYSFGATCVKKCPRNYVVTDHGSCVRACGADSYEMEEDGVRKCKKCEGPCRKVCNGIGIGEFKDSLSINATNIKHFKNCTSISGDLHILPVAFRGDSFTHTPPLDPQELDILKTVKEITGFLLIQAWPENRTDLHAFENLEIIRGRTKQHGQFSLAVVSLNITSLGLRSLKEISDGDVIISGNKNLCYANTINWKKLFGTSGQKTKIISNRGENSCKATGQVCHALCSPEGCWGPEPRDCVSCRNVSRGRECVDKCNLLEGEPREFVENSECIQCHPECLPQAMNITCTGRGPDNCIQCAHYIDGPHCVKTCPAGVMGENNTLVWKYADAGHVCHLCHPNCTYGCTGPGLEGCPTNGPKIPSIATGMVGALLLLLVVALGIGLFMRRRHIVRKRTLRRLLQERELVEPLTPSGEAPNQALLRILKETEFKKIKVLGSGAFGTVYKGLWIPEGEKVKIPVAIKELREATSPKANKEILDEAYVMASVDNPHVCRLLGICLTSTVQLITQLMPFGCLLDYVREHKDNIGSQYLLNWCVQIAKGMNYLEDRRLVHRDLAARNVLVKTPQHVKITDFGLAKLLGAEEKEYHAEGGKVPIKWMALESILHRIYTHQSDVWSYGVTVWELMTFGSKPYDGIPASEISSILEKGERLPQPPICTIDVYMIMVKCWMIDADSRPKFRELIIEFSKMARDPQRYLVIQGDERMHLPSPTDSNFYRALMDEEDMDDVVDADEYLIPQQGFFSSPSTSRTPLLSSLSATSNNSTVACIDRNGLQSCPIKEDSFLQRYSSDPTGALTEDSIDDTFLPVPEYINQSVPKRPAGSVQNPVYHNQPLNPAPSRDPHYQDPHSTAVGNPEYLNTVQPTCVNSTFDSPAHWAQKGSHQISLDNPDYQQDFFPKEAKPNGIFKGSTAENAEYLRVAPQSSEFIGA
Measured IC50, listed per entry for reference.
Write down the numeric answer in µM and omit the unit.

Completed entries (count: 4):
O=S(=O)(CCNCc1ccc(-c2ccc3ncnc(Nc4ccc(OCc5cccc(F)c5)c(Cl)c4)c3c2)o1)C(F)(F)F ... 0.0324
CSCCNCc1ccc(-c2ccc3ncnc(Nc4ccc(OCc5cccc(F)c5)c(Cl)c4)c3c2)o1 ... 0.0562
C[S+]([O-])CCNCc1ccc(-c2ccc3ncnc(Nc4ccc(OCc5cccc(F)c5)c(Cl)c4)c3c2)o1 (centres unmarked) ... 0.0527
O=S(=O)(CCNCc1ccc(-c2ccc3ncnc(Nc4ccc(OCc5cccc(F)c5)c(Cl)c4)c3c2)o1)CC(F)(F)F ... 0.0146

The molecule listed as CS(=O)(=O)NCCNCc1ccc(-c2ccc3ncnc(Nc4ccc(OCc5cccc(F)c5)c(Cl)c4)c3c2)o1 shows IC50 equal to 0.0155

====

target: hERG potassium currents (IKr) (Homo sapiens (Human), UniProt Q12809); assay: hERG potassium currents, whole cell patch clamp in transfected HEK293 cells; format: cell-based; conditions: HEK293 cells transfected with hERG cDNA, read-out: semi-effective inhibition dose IC50 for IKr pulse current
Sequence (Q12809 whole entry): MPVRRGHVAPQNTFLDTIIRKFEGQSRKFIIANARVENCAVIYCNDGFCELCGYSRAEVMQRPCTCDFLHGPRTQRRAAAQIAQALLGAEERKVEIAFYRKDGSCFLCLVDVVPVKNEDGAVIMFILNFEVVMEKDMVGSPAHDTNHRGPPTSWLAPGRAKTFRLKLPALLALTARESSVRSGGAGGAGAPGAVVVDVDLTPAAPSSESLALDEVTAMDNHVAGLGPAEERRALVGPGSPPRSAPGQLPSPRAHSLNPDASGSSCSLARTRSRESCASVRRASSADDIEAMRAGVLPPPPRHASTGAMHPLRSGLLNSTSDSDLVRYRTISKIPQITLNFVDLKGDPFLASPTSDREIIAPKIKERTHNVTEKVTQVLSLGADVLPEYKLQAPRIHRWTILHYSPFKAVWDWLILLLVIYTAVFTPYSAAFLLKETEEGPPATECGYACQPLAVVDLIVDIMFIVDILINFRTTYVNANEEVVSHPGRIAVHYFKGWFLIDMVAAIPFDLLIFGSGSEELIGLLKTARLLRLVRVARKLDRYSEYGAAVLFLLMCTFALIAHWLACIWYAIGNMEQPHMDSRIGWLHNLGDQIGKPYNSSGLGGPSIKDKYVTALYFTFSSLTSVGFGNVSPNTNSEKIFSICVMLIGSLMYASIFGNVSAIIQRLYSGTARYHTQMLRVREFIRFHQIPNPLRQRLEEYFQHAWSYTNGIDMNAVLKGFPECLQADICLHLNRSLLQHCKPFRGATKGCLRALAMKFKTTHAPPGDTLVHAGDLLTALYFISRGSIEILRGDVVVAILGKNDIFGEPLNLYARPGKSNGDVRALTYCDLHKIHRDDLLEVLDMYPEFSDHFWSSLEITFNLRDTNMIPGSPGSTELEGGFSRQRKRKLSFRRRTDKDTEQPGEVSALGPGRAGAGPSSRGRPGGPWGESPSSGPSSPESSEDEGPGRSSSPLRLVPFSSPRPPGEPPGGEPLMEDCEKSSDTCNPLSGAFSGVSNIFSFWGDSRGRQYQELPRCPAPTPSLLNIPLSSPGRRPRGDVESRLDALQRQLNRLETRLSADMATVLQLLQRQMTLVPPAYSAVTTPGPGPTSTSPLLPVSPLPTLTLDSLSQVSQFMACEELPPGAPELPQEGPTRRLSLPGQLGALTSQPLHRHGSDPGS
Measured parameter: pIC50
Scale for pIC50: -log10 of concentration given in mol/L; no unit attached.

Given item C[S+]([O-])CCNCc1ccc(-c2ccc3ncnc(Nc4ccc(OCc5cccc(F)c5)c(Cl)c4)c3c2)o1 (stereo not shown) , the value recorded as its pIC50 is 5.00
